test: PK study in mice; assay type: in vivo; conditions: male, ICR, mouse, plasma, iv, 1 mg/kg
outcomeMeasure: half-life (min)

structureSmiles	reportedValue
Cn1ncc(C(=O)NCc2ccc(-n3cnc4c(N)ncnc43)cc2)c1Cc1ccccc1	48.6
C[C@H](NC(=O)c1cnn(C)c1Cc1ccccc1)c1ccc(-n2cnc3c(N)ncnc32)cc1	26.4
Cn1nnc(C(=O)NCc2ccc(-n3cnc4c(N)ncnc43)cc2)c1Cc1ccccc1	61.8
C[C@@H](c1ccc(-n2cnc3c(N)ncnc32)cc1)N1Cc2nn(C)c(Cc3ccccc3)c2C1=O	36.6
Cn1nc(Cl)c(C(=O)NCc2ccc(-n3cnc4c(N)ncnc43)cc2)c1Cc1ccccc1	48.6
